Tested on: MDA-MB-231
Experiment: Antiproliferative activity against human MDA-MB-231 cells at > 1 uM incubated for 48 hrs by sulforhodamine B assay
Format: functional, cell-based
The source made the active and inactive calls. No cut-off for these calls is given here. Numbered stars: 1 amine (or outer) side, 2 acyl side, 3 side chain; on linkers, the order of the positions; unused ones are H or OH. Square brackets hold non-standard residues; d marks the D form. Peptide text beside a SMILES is read from it. * marks the point of attachment. X4 = CCCC[C@@H](O)C[C@@H](C)C[C@H](N[*:1])C(=O)[*:2]; X3 = CCC(=O)CCC[C@@H](C)C[C@H](N[*:1])C(=O)[*:2]; Hexenoyl(2E,4S-Me) = CC[C@H](C)/C=C/C(=O)*; Leu(3R-OH) = CC(C)[C@@H](O)[C@H](N)C(=O)O; NH((S)CH(Me)CH2NMe2) = C[C@@H](CN(C)C)N*; Pro(4S-Me) = C[C@@H]1CN[C@H](C(=O)O)C1; NH((S)CH(CH3)CH2NHMe) = CNC[C@H](C)N*; Aib = CC(C)(N)C(=O)O; βAla = NCCC(=O)O
reportedEndpoint: Activity

CCCC[C@@H](O)C[C@@H](C)C[C@H](NC(=O)[C@@H]1C[C@H](C)CN1C(=O)/C=C/[C@@H](C)CC)C(=O)N[C@H](C(=O)NC(C)(C)C(=O)N[C@@H](CC(C)C)C(=O)N[C@@H](CC(C)C)C(=O)NC(C)(C)C(=O)NC(C)(C)C(=O)NCCC(=O)N[C@@H](C)CNC)[C@H](O)C(C)C ({Hexenoyl(2E,4S-Me)}-[Pro(4S-Me)][X4][Leu(3R-OH)][Aib]LL[Aib][Aib][βAla]-{NH((S)CH(CH3)CH2NHMe)})	Active
CCC(=O)CCC[C@@H](C)C[C@H](NC(=O)[C@@H]1C[C@H](C)CN1C(=O)/C=C/[C@@H](C)CC)C(=O)N[C@H](C(=O)NC(C)(C)C(=O)N[C@@H](CC(C)C)C(=O)N[C@@H](CC(C)C)C(=O)NC(C)(C)C(=O)NC(C)(C)C(=O)NCCC(=O)N[C@@H](C)CN(C)C)[C@H](O)C(C)C ({Hexenoyl(2E,4S-Me)}-[Pro(4S-Me)][X3][Leu(3R-OH)][Aib]LL[Aib][Aib][βAla]-{NH((S)CH(Me)CH2NMe2)})	Active
CC[C@H](C)/C=C/C(=O)N1C[C@@H](C)C[C@H]1C(=O)N[C@@H](CC(C)C)C(=O)N[C@H](C(=O)NC(C)(C)C(=O)N[C@@H](CC(C)C)C(=O)N[C@@H](CC(C)C)C(=O)NC(C)(C)C(=O)NC(C)(C)C(=O)NCCC(=O)N[C@@H](C)CN(C)C)[C@H](O)C(C)C ({Hexenoyl(2E,4S-Me)}-[Pro(4S-Me)]L[Leu(3R-OH)][Aib]LL[Aib][Aib][βAla]-{NH((S)CH(Me)CH2NMe2)})	Active

* * *

Test system: HCC1937
Experiment: Antiproliferative activity against human HCC1937 cells at >1 uM incubated for 48 hrs by sulforhodamine B assay
Assay type: functional, cell-based
Active and inactive are the calls of the source. No cut-off for these calls is given here. Numbered stars: 1 amine (or outer) side, 2 acyl side, 3 side chain; on linkers, the order of the positions; unused ones are H or OH. Square brackets hold non-standard residues; d marks the D form. Peptide text beside a SMILES is read from it. * marks the point of attachment. X3 = CCC(=O)CCC[C@@H](C)C[C@H](N[*:1])C(=O)[*:2]; Hexenoyl(2E,4S-Me) = CC[C@H](C)/C=C/C(=O)*; Leu(3R-OH) = CC(C)[C@@H](O)[C@H](N)C(=O)O; NH((S)CH(Me)CH2NMe2) = C[C@@H](CN(C)C)N*; Pro(4S-Me) = C[C@@H]1CN[C@H](C(=O)O)C1; NH((S)CH(CH3)CH2NHMe) = CNC[C@H](C)N*; Aib = CC(C)(N)C(=O)O; βAla = NCCC(=O)O
reportedEndpoint: Activity

CC[C@H](C)/C=C/C(=O)N1C[C@@H](C)C[C@H]1C(=O)N[C@@H](CC(C)C)C(=O)N[C@H](C(=O)NC(C)(C)C(=O)N[C@@H](CC(C)C)C(=O)N[C@@H](CC(C)C)C(=O)NC(C)(C)C(=O)NC(C)(C)C(=O)NCCC(=O)N[C@@H](C)CNC)[C@H](O)C(C)C ({Hexenoyl(2E,4S-Me)}-[Pro(4S-Me)]L[Leu(3R-OH)][Aib]LL[Aib][Aib][βAla]-{NH((S)CH(CH3)CH2NHMe)})	Active
CCC(=O)CCC[C@@H](C)C[C@H](NC(=O)[C@@H]1C[C@H](C)CN1C(=O)/C=C/[C@@H](C)CC)C(=O)N[C@H](C(=O)NC(C)(C)C(=O)N[C@@H](CC(C)C)C(=O)N[C@@H](CC(C)C)C(=O)NC(C)(C)C(=O)NC(C)(C)C(=O)NCCC(=O)N[C@@H](C)CN(C)C)[C@H](O)C(C)C ({Hexenoyl(2E,4S-Me)}-[Pro(4S-Me)][X3][Leu(3R-OH)][Aib]LL[Aib][Aib][βAla]-{NH((S)CH(Me)CH2NMe2)})	Active
CC[C@H](C)/C=C/C(=O)N1C[C@@H](C)C[C@H]1C(=O)N[C@@H](CC(C)C)C(=O)N[C@H](C(=O)NC(C)(C)C(=O)N[C@@H](CC(C)C)C(=O)N[C@@H](CC(C)C)C(=O)NC(C)(C)C(=O)NC(C)(C)C(=O)NCCC(=O)N[C@@H](C)CN(C)C)[C@H](O)C(C)C ({Hexenoyl(2E,4S-Me)}-[Pro(4S-Me)]L[Leu(3R-OH)][Aib]LL[Aib][Aib][βAla]-{NH((S)CH(Me)CH2NMe2)})	Active
